system: control sera (pooled serum of ten healthy LUMC hospital workers; commercial negative donor pooled serum from the Dutch bloodbank); format: binding, human
experimental-endpoint: Binding of Control Serum Blood-Bank to Looped peptides
Give the figure by itself; no unit, no explanation.

Data point: VSLVKPTVYVYSRVK ; Binding of Control Serum Blood-Bank to Looped peptides = 0.6

Data point: TALTQHGKEELRFPR ; Binding of Control Serum Blood-Bank to Looped peptides = 0.8

Data point: RPKQRRPQGLPNNTA ; Binding of Control Serum Blood-Bank to Looped peptides = 0.4

Data point: LPQGTTLPKGFYAEG ; Binding of Control Serum Blood-Bank to Looped peptides = 0.9

Data point: VSPKLFIRQEEVQQE ; Binding of Control Serum Blood-Bank to Looped peptides = 0.4

Data point: GGETALALLLLDRLN ; Binding of Control Serum Blood-Bank to Looped peptides = 0.8

Data point: GYFTEVYYQLESTQI ; Binding of Control Serum Blood-Bank to Looped peptides = 0.6

Data point: CLCKHKKVSTNLCTH ; Binding of Control Serum Blood-Bank to Looped peptides = 0.4

Data point: SSRSSSRSRGNSRNS ; Binding of Control Serum Blood-Bank to Looped peptides = 0.7

Data point: RMCKYTQSTALQELL ; Binding of Control Serum Blood-Bank to Looped peptides = 0.7

Data point: QSTALQELLIQQWIQ ; Binding of Control Serum Blood-Bank to Looped peptides = 0.6

Data point: NSGPDDQIGYYRRAT ; Binding of Control Serum Blood-Bank to Looped peptides = 0.7

Data point: FLAVFQSATKIIALN ; Binding of Control Serum Blood-Bank to Looped peptides = 0.6

Data point: ARSVSPKLFIRQEEV ; Binding of Control Serum Blood-Bank to Looped peptides = 0.7

Data point: ILFLTLIVFTSCELY ; Binding of Control Serum Blood-Bank to Looped peptides = 0.7

Data point: CTPNVTINCQDPAGG ; Binding of Control Serum Blood-Bank to Looped peptides = 0.4

Data point: CAYCCNIVNVSLVKP ; Binding of Control Serum Blood-Bank to Looped peptides = 0.9

Data point: NTASWFTALTQHGKE ; Binding of Control Serum Blood-Bank to Looped peptides = 0.5

Data point: CTSTHFAFACADGTR ; Binding of Control Serum Blood-Bank to Looped peptides = 0.8

Data point: VILRIGTQVLKTMSL ; Binding of Control Serum Blood-Bank to Looped peptides = 0.7

Data point: SSRGNSPARMASGGG ; Binding of Control Serum Blood-Bank to Looped peptides = 0.8

Data point: ITMTTVYHITVSQIQ ; Binding of Control Serum Blood-Bank to Looped peptides = 0.5

Data point: DPAGGALIARCWYLH ; Binding of Control Serum Blood-Bank to Looped peptides = 0.8

Data point: VQIHTIDGSSGVANP ; Binding of Control Serum Blood-Bank to Looped peptides = 0.3

Data point: CCNIVNVSLVKPTVY ; Binding of Control Serum Blood-Bank to Looped peptides = 0.4

Data point: KTTKLVVILRIGTQV ; Binding of Control Serum Blood-Bank to Looped peptides = 0.7

Data point: DPPNVQIHTIDGSSG ; Binding of Control Serum Blood-Bank to Looped peptides = 0.4
